Post-emergence efficacy against Bassia scoparia (KCHSC) values by entry
- Test system: Bassia scoparia (KCHSC)
- test name: Post-emergence herbicidal efficacy at 320 g/ha, greenhouse pot test
- Format: in vivo
- condition context: visual rating vs untreated control after about 3 weeks
quantity: Post-emergence efficacy against Bassia scoparia (KCHSC) (%)

{"compound": "Cc1cc(C)c(-c2cc(C(F)F)no2)c(Oc2ncc(Br)cn2)n1 [Example I-41]", "unit descriptor": "%", "quantitative readout": 100}
{"compound": "Cc1cc(C)c(-c2cc(C(F)F)no2)c(Oc2ncc(C(F)(F)F)cn2)n1 [Example I-45]", "unit descriptor": "%", "quantitative readout": 90}
{"compound": "Cc1cc(C)c(-c2cc(C(F)Cl)no2)c(Oc2ncc(Cl)cn2)n1 (stereo not drawn) [Example I-5]", "unit descriptor": "%", "quantitative readout": 90}
{"compound": "Cc1cc(C)c(-c2cc(C3CC3)no2)c(Oc2ncc(Cl)cn2)n1 [Example I-179]", "unit descriptor": "%", "quantitative readout": 90}
{"compound": "Cc1cc(C)c(-c2cc(C(F)(F)F)on2)c(Oc2ncc(F)cn2)n1 [Example I-6]", "unit descriptor": "%", "quantitative readout": 90}
{"compound": "Cc1cc(C)c(-c2cc(C(F)F)no2)c(Oc2ncc(Cl)cc2F)n1 [Example I-14]", "unit descriptor": "%", "quantitative readout": 100}
{"compound": "Cc1cc(C)c(-c2cc(C(F)(F)Cl)no2)c(Oc2ncc(Cl)cn2)n1 [Example I-8]", "unit descriptor": "%", "quantitative readout": 90}
{"compound": "Cc1cc(C)c(-c2cc(C(F)F)on2)c(Oc2ncc(F)cn2)n1 [Example I-3]", "unit descriptor": "%", "quantitative readout": 100}
{"compound": "Cc1cc(C)c(-n2cc(I)cn2)c(Oc2ncc(Cl)cn2)n1 [Example I-295]", "unit descriptor": "%", "quantitative readout": 90}
